Target: full-length human GLP-1R with an N-terminal FLAG tag (human, UniProt P43220 24-463)
Assay: cell-based or functional assay
Starred links: 1 amine or outer side, 2 acyl side, 3 side chain; linkers in the order of their positions; H or OH if unused. Non-standard residues stand in square brackets, D forms with d. Groups on a side chain read outwards from the residue. No end group written: not given here. *: point of attachment. 2OEGgE‑C16DA = O=C(O)CCCCCCCCCCCCCCC(=O)N[C@@H](CCC(=O)NCCOCCOCC(=O)NCCOCCOCC(=O)*)C(=O)O; G2E3 = linker of 2 Gly and 3 Glu (read GGEEE); C15 diacid = O=C(O)CCCCCCCCCCCCCC(=O)*; γGlu = O=C(O)[C@H](CCC(=O)[*:2])N[*:1]; NMeY = CN[C@@H](Cc1ccc(O)cc1)C(=O)O; AEEA = NCCOCCOCC(=O)O; Aib = CC(C)(N)C(=O)O
Provide the recorded Human GLP1R cAMP HEK293T EC50 for the entries that follow.
One number for each entry, in nM.

binder	measurement_units	Human GLP1R cAMP HEK293T EC50
[NMeY][Aib]EGTFISDYSIAK([GGEEE-C15 diacid])DR[Aib]AQ[Aib]NFVNWLLAQRPSSGAPPPS-NH2 [Compound 99]	nM	1000
[NMeY][Aib]EGTFISDYSIALDR[Aib]AQ[Aib]NFVNWLLAK([AEEA-AEEA-γGlu-C15 diacid])K-OH (not fully specified) [Compound 34]	nM	117
Me-Y[Aib]EGTFISDYSI[Aib]K([G2E3-C15 diacid])DR[Aib]AQ[Aib]NFVNWLLAQRPSSGAPPPS-NH2 [Compound 138]	nM	1000
[NMeY][Aib]EGTFISDYSIALDRK([Gly-Gly-Gly-Gly-Gly-γGlu-C15 diacid])AQ[Aib]DFVNWLLAQRPSSGAPPPS-NH2 [Compound 137]	nM	479

Go through the items and report each one's Human GLP1R cAMP HEK293T EC50.
1. [NMeY][Aib]EGTFISDYSIALDR[Aib]AQ[Aib]K([AEEA-γGlu-γGlu-γGlu-C15 diacid])FVNWLLA[Aib]K-OH (not fully specified) [Compound 45]
2. [NMeY][Aib]EGTFISDYSIALDRKHQ[Aib]NFVNWLLAQRPSSGAPPPS-NH2 (not fully specified (residue 17)) [Compound 63]
3. [NMeY][Aib]EGTFISDYSI[Aib]KDR[Aib]AQ[Aib]NFVNWLLAQRPSSKKKKKK-NH2 (not fully specified (residue 14, N-terminus)) [Compound 124]
4. [NMeY][Aib]EGTFISDYSIAK(2OEGgE‑C16DA)DR[Aib]AQ[Aib]NFVNWLLAQK [Compound 11]

48.4
141
126
145

Each recorded value in this set is attributed to patent US20220227830A1.
